Answer each item with its documented inhibition at 10 µM.
# Tested on: SK-MEL-2
# experimentalProtocol: NCI one-dose SRB growth inhibition
# Assay type: cell-based
# testConditions: Homo sapiens, Melanoma, 48 h, read-out: GI% SK-MEL-2

Sample answers from the record:
[
  {
    "compound": "Cc1nc(-c2ccc(Cl)cc2)ccc1NC(=O)Nc1ccc2c(c1)OCO2",
    "reportedMeasurement": "< 10%"
  },
  {
    "compound": "COc1ccc(NC(=O)Nc2ccc(-c3ccc(Cl)cc3)nc2C)cc1",
    "reportedMeasurement": "< 10%"
  },
  {
    "compound": "Cc1nc(-c2cccs2)ccc1NC(=O)Nc1ccc(F)cc1",
    "reportedMeasurement": "24%"
  }
]

// each compound listed below needs its inhibition at 10 µM
1. Cc1nc(-c2cccs2)ccc1NC(=O)Nc1ccc(Cl)cc1
2. Cc1nc(-c2ccc(F)cc2)ccc1NC(=O)Nc1ccc2c(c1)OCO2

< 10%
< 10%

====

Answer each item with its documented inhibition at 10 µM.
# System: NCI/ADR-RES
# experimentalProtocol: NCI one-dose SRB growth inhibition
# Type: cell-based
# testConditions: Homo sapiens, Ovarian Cancer, 48 h, read-out: GI% NCI/ADR-RES
# Experimental: The antitumor assay was performed according to the protocol of the Drug Evaluation Branch, NCI, Bethesda[24–26]. A 48 h drug exposure protocol was adopted, and sulforhodamine B (SRB) assay[27] was utilized to assess the cell growth and viability, as reported earlier[17]^,[28]. The structures of all the newly synthesized pyridines 5a–l were submitted to the National Cancer Institute (NCI) Developmental Therapeutic Program (www.dtp.nci.nih.gov). […]

// each compound listed below needs its inhibition at 10 µM
1. Cc1nc(-c2ccc(F)cc2)ccc1NC(=O)Nc1ccc2c(c1)OCO2
2. COc1ccc(NC(=O)Nc2ccc(-c3ccc(Cl)cc3)nc2C)cc1
3. Cc1nc(-c2ccc(Cl)cc2)ccc1NC(=O)Nc1ccc2c(c1)OCO2
4. Cc1nc(-c2ccc(F)cc2)ccc1NC(=O)Nc1cccc(C(F)(F)F)c1

1: < 10%; 2: < 10%; 3: < 10%; 4: 20%

====

# System: MALME-3M
# experimentalProtocol: NCI one-dose SRB growth inhibition
# Assay type: cell-based
# testConditions: Homo sapiens, Melanoma, 48 h, read-out: GI% MALME-3M
assayMetric: inhibition at 10 µM

Sample answers from the record:
[
  {
    "compound": "Cc1nc(-c2ccc(F)cc2)ccc1NC(=O)Nc1cccc(C(F)(F)F)c1",
    "assayMetric": "inhibition at 10 µM",
    "reportedMeasurement": "< 10%"
  },
  {
    "compound": "Cc1nc(-c2ccc(Cl)cc2)ccc1NC(=O)Nc1cccc(C(F)(F)F)c1",
    "assayMetric": "inhibition at 10 µM",
    "reportedMeasurement": "< 10%"
  },
  {
    "compound": "COc1ccc(NC(=O)Nc2ccc(-c3ccc(Cl)cc3)nc2C)cc1",
    "assayMetric": "inhibition at 10 µM",
    "reportedMeasurement": "< 10%"
  }
]

// each molecule listed below needs its inhibition at 10 µM
1. Cc1nc(-c2cccs2)ccc1NC(=O)Nc1ccc(F)cc1
2. Cc1nc(-c2ccc(F)cc2)ccc1NC(=O)Nc1ccc2c(c1)OCO2
3. CCOC(=O)c1ccc(NC(=O)Nc2ccc(-c3cccs3)nc2C)cc1

1: < 10%; 2: < 10%; 3: < 10%

// each molecule listed below needs its inhibition at 10 µM
1. Cc1nc(-c2cccs2)ccc1NC(=O)Nc1ccc(Cl)cc1
2. CCOC(=O)c1ccc(NC(=O)Nc2ccc(-c3ccc(F)cc3)nc2C)cc1
3. Cc1nc(-c2ccc(Cl)cc2)ccc1NC(=O)Nc1ccc2c(c1)OCO2

["< 10%", "< 10%", "< 10%"]

====

assayMetric: melting point

Sample answers from the record:
[
  {
    "compound": "Cc1nc(-c2ccc(F)cc2)ccc1NC(=O)Nc1ccc2c(c1)OCO2",
    "melting point": "254 to 256 °C"
  },
  {
    "compound": "COc1ccc(NC(=O)Nc2ccc(-c3ccc(Cl)cc3)nc2C)cc1",
    "melting point": "264 to 265 °C"
  },
  {
    "compound": "Cc1nc(-c2cccs2)ccc1NC(=O)Nc1ccc(Cl)cc1",
    "melting point": "234 to 236 °C"
  }
]

// each molecule listed below needs its melting point
1. Cc1nc(-c2cccs2)ccc1NC(=O)Nc1ccc2c(c1)OCO2
2. CCOC(=O)c1ccc(NC(=O)Nc2ccc(-c3ccc(F)cc3)nc2C)cc1
3. Cc1nc(-c2ccc(F)cc2)ccc1NC(=O)Nc1cccc(C(F)(F)F)c1

["239 to 241 °C", "209 to 211 °C", "223 to 225 °C"]

====

# System: SK-MEL-5
# experimentalProtocol: NCI one-dose SRB growth inhibition
# Format: cell-based
# testConditions: Homo sapiens, Melanoma, 48 h, read-out: GI% SK-MEL-5
Answer each item with its documented inhibition at 10 µM.
Answers are plain numbers, in %.

[
  {
    "compound": "Cc1nc(-c2ccc(F)cc2)ccc1NC(=O)Nc1ccc2c(c1)OCO2 [Compound 5d]",
    "unitString": "%",
    "inhibition at 10 µM": 19
  },
  {
    "compound": "CCOC(=O)c1ccc(NC(=O)Nc2ccc(-c3ccc(F)cc3)nc2C)cc1 [Compound 5c]",
    "unitString": "%",
    "inhibition at 10 µM": 38
  },
  {
    "compound": "COc1ccc(NC(=O)Nc2ccc(-c3ccc(Cl)cc3)nc2C)cc1 [Compound 5f]",
    "unitString": "%",
    "inhibition at 10 µM": 38
  },
  {
    "compound": "Cc1nc(-c2ccc(F)cc2)ccc1NC(=O)Nc1cccc(C(F)(F)F)c1 [Compound 5a]",
    "unitString": "%",
    "inhibition at 10 µM": 32
  },
  {
    "compound": "CCOC(=O)c1ccc(NC(=O)Nc2ccc(-c3cccs3)nc2C)cc1 [Compound 5j]",
    "unitString": "%",
    "inhibition at 10 µM": 22
  },
  {
    "compound": "Cc1nc(-c2cccs2)ccc1NC(=O)Nc1ccc(F)cc1 [Compound 5h]",
    "unitString": "%",
    "inhibition at 10 µM": 12
  }
]

# next compound below
Give its inhibition at 10 µM value. Item: Cc1nc(-c2ccc(Cl)cc2)ccc1NC(=O)Nc1ccc2c(c1)OCO2 [Compound 5g]
17

====

Answer each item with its documented inhibition at 10 µM.
# Test system: CCRF-CEM
# experimentalProtocol: NCI one-dose SRB growth inhibition
# Assay type: cell-based
# testConditions: Homo sapiens, Leukemia, 48 h, read-out: GI% CCRF-CEM
Give bare numbers, in %.

[
  {
    "compound": "COc1ccc(NC(=O)Nc2ccc(-c3ccc(Cl)cc3)nc2C)cc1 [Compound 5f]",
    "unitString": "%",
    "inhibition at 10 µM": 18
  }
]

# next compound below
Give its inhibition at 10 µM value. Item: Cc1nc(-c2cccs2)ccc1NC(=O)Nc1ccc(F)cc1 [Compound 5h]
10

====

Answer each item with its documented inhibition at 10 µM.
# System: NCI-H460
# experimentalProtocol: NCI one-dose SRB growth inhibition
# Type: cell-based
# testConditions: Homo sapiens, Non-Small Cell Lung Cancer, 48 h, read-out: GI% NCI-H460

Sample answers from the record:
[
  {
    "compound": "Cc1nc(-c2ccc(F)cc2)ccc1NC(=O)Nc1cccc(C(F)(F)F)c1 [Compound 5a]",
    "inhibition at 10 µM": "34%"
  },
  {
    "compound": "Cc1nc(-c2cccs2)ccc1NC(=O)Nc1ccc(F)cc1 [Compound 5h]",
    "inhibition at 10 µM": "< 10%"
  },
  {
    "compound": "Cc1nc(-c2ccc(F)cc2)ccc1NC(=O)Nc1ccc2c(c1)OCO2 [Compound 5d]",
    "inhibition at 10 µM": "< 10%"
  }
]

// each compound listed below needs its inhibition at 10 µM
1. CCOC(=O)c1ccc(NC(=O)Nc2ccc(-c3ccc(F)cc3)nc2C)cc1 [Compound 5c]
2. Cc1nc(-c2cccs2)ccc1NC(=O)Nc1ccc(Cl)cc1 [Compound 5i]
3. Cc1nc(-c2ccc(Cl)cc2)ccc1NC(=O)Nc1cccc(C(F)(F)F)c1 [Compound 5e]
4. CCOC(=O)c1ccc(NC(=O)Nc2ccc(-c3cccs3)nc2C)cc1 [Compound 5j]
5. Cc1nc(-c2ccc(Cl)cc2)ccc1NC(=O)Nc1ccc2c(c1)OCO2 [Compound 5g]

1: < 10%; 2: < 10%; 3: 34%; 4: 43%; 5: < 10%

Could you share what inhibition at 10 µM was measured for COc1ccc(NC(=O)Nc2ccc(-c3ccc(Cl)cc3)nc2C)cc1 [Compound 5f] , tested on NCI-H460?
< 10%

====

assayMetric: melting point

Sample answers from the record:
[
  {
    "compound": "CCOC(=O)c1ccc(NC(=O)Nc2ccc(-c3cccs3)nc2C)cc1",
    "reportedMeasurement": "203 to 204 °C"
  },
  {
    "compound": "Cc1nc(-c2ccc(Cl)cc2)ccc1NC(=O)Nc1cccc(C(F)(F)F)c1",
    "reportedMeasurement": "241 to 242 °C"
  },
  {
    "compound": "Cc1nc(-c2cccs2)ccc1NC(=O)Nc1ccc(F)cc1",
    "reportedMeasurement": "217 to 219 °C"
  }
]

// each compound listed below needs its melting point
1. Cc1nc(-c2ccc(Cl)cc2)ccc1NC(=O)Nc1ccc2c(c1)OCO2
2. Cc1nc(-c2ccc(F)cc2)ccc1NC(=O)Nc1cc(C(F)(F)F)cc(C(F)(F)F)c1

1. 271 to 273 °C
2. 235 to 237 °C
